Reference source for all entries: patent US20100061928A1

Give measured Concentration of radioactivity, muscle (skeletal muscle), Mean for each item. Keep answers brief.
- System: grafted B16 F0 murine melanoma tumour
- TEST_DESCRIPTION: Biodistribution of the ^125I-labelled molecules in the melanoma-bearing mouse (autoradiography of whole-body sections)
- RUN_PARAMETERS: 3 H after i.v. administration, ^125I-labelled compound
Counter-ions that a name gives are not always drawn.
Your answer is read as % ID/g, so omit the unit and give the number.

Fill blank: measured Concentration of radioactivity, muscle (skeletal muscle), Mean of the molecule CCN(CC)CCNC(=O)c1nc2ccccn2c1I [compound 16, dihydrochloride] is ____.
1.30

Fill blank: measured Concentration of radioactivity, muscle (skeletal muscle), Mean of the molecule CCN(CC)CCNC(=O)c1cc2cc(I)ccc2[nH]1 [compound 10, hydrochloride] is ____.
0.49

Fill blank: measured Concentration of radioactivity, muscle (skeletal muscle), Mean of the molecule CCN(CC)CCNC(=O)c1ccc2cc(I)ccc2c1 [compound 3, hydrochloride] is ____.
0.83

Fill blank: measured Concentration of radioactivity, muscle (skeletal muscle), Mean of the molecule CCN(CC)CCNC(=O)c1ccc2cc(I)ccc2n1.Cl.Cl [compound 31] is ____.
1.14
